- assayed.target: Recombinant STAT6 protein (STAT6 (W123-T658)) (Homo sapiens, UniProt P42226)
- Construct: Recombinant STAT6 protein (STAT6 (W123-T658))
- Sequence (P42226 123-658): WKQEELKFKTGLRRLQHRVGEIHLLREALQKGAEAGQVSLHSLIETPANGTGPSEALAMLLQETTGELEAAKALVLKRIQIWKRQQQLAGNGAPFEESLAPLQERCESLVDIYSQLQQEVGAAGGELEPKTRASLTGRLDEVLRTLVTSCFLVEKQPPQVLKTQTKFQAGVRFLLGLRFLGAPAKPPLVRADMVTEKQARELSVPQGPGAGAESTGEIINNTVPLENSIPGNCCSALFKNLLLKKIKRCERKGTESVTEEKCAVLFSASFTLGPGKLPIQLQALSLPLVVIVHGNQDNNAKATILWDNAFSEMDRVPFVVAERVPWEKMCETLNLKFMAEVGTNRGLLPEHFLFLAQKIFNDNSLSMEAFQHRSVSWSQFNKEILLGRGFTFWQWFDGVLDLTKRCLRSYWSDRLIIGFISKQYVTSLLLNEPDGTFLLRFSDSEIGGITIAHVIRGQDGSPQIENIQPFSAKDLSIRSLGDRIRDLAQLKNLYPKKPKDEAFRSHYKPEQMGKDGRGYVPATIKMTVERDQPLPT
- protocol.text: STAT6 Fluorescence Polarization (FP) Assay
- Assay type: binding
- test.settings: STAT6 (W123-T658) 250 nM, probe 5-FAM-Ap[…]-NH2 2 nM, 45-minute incubation; read-out: STAT6 (FP assay IC50 class)
pIC50: −log10 of the molar value.
readout.kind: pIC50

Illustrative cases are given below, each with its answer.
- compound.smiles: "O=C(N[C@H]1CCC[C@H]2CC[C@@H](C(=O)N3CC(c4cncnc4O)C3)N2C1=O)c1cc2cc(CP(=O)(O)O)ccc2s1"
  assayed.target: "Recombinant STAT6 protein (STAT6 (W123-T658)) (Homo sapiens, UniProt P42226)"
  result: "4.52 to 5.52"
- compound.smiles: "C[C@H]1COCCN1c1ccncc1C1CN(C(=O)[C@@H]2CC[C@@H]3CCC[C@H](NC(=O)c4cc5cc(CP(=O)(O)O)ccc5s4)C(=O)N32)C1"
  assayed.target: "Recombinant STAT6 protein (STAT6 (W123-T658)) (Homo sapiens, UniProt P42226)"
  result: "4.52 to 5.52"

Here is the next item to consider.
Prompt: Which measured pIC50 value corresponds to COCC1(c2ncccn2)CN(C(=O)[C@@H]2CC[C@@H]3CCCC[C@H](NC(=O)c4cc5cc(C(F)(F)P(=O)(O)O)ccc5s4)C(=O)N32)C1 ?
Completion: 4.52 to 5.52

Measured values drawn from patent US20250215029A1 for this set.
